Molecular target: T1, recombinant human IL-12 (rhIL-12) (human, UniProt P29459 23-219; P29460 23-328)
T1 sequence (looked up) 1: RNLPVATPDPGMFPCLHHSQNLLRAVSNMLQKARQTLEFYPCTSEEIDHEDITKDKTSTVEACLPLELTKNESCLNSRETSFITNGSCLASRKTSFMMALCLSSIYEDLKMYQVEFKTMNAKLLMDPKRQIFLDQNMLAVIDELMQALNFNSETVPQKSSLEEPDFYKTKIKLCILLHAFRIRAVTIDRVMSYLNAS
T1 sequence (looked up) 2: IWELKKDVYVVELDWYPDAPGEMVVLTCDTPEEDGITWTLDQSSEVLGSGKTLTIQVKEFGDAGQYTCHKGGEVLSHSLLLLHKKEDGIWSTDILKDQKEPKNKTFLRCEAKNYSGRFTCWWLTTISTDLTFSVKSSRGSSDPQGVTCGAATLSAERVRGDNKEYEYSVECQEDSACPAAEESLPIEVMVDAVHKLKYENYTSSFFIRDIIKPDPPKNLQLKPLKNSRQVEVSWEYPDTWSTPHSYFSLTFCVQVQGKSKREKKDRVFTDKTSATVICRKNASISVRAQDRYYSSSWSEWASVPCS
Assay: cell-based or functional assay
PHA assay IC50 (M) p70:p40 1:20: recorded values
Express it in M; write the number only.

The following binders have reported results that may help.
binder="149-7 (scFv, V domains shown) VH: QVQLVQSGGGVVQPGRSLRLSCAASGFTFSSYGMHWVRQAPGKGLEWVAFIRYDGSNKYYADSVKGRFTISRDNSKNTLYLQMKSLRAEDTAVYYCTTHGSHDNWGQGTMVTVSS VL: SYVLTQPPSVSGTPGQRVTISCSGGRSNIGSNTVKWYQQLPGTAPKLLIYGNDQRPSGVPDRFSGSKSGTSASLAITGVQAEDEADYYCQSYDRDFTGSRVFGTGTKVTVL" value_unit=M value_measured=2.5e-09
binder="149-5 (scFv, V domains shown) VH: QVQLVQSGGGVVQPGRSLRLSCAASGFTFSSYGMHWVRQAPGKGLEWVAFIRYDGSNKYYADSVKGRFTISRDNSKNTLYLQMKSLRAEDTAVYYCTTHGSHDTWGQGTMVTVSS VL: SYVLTQPPSVSGTPGQRVTISCSGGRSNIGSNTVKWYQQLPGTAPKLLIYGNDQRPSGVPDRFSGSKSGTSASLAITGVQAEDEADYYCQSYDSSLWGTRVFGTGTKVTVLG" value_unit=M value_measured=7e-09

Ask: Quick one: give measured PHA assay IC50 (M) p70:p40 1:20 for 136-15 (scFv, V domains shown) VH: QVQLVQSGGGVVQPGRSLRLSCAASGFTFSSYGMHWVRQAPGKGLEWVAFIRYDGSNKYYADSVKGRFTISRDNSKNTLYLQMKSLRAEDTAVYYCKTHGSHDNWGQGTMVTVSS VL: SYVLTQPPSVSGTPGQRVTISCSGSRSNIGSNTVKWYQQLPGTAPKLLIYGNDQRPSGVPDRFSGSKSGTSASLAITGVQAEDEADYYCQTYDKGFTGSSVFGTGTKVTVLG
Result: 5e-09
